# Experimental target: NK-2 receptor (Oryctolagus cuniculus, UniProt P79218)
# Construct: This preparation is isolated rabbit pulmonary artery, in which tachykinins produce dose-related contraction; from tissue; host or cells: isolated rabbit pulmonary artery
# Sequence (P79218 1-384): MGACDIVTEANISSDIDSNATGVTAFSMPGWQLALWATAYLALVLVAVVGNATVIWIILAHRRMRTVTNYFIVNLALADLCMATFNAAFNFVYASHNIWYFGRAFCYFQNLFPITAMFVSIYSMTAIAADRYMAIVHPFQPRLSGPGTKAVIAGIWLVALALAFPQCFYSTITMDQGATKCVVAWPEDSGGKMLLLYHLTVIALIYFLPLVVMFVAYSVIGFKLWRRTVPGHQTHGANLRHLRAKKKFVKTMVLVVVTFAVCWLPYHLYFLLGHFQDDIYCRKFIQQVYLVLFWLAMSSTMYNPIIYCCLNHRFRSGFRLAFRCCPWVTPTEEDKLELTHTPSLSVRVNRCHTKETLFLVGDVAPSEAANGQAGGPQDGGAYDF
# Experiment: Antagonism of NKA-induced contraction in isolated rabbit pulmonary artery
# Type: cell-based
# Test conditions: inhibition of the response to NKA (3 nM), 10⁻⁶M concentration of each compound
# Method: The ability of the peptides described in the present invention to interact with the neurokinin A receptor as agonists or antagonists was evaluated in an in-vitro study using a preparation in which the biological response produced by tachykinins and related peptides is determined exclusively from the neurokinin A receptor (NK-2 receptor). […] The activity of the peptides in this preparation was determined using a concentration of NKA (3 nM) that produces a response equivalent to 45% of the maximum. […]
Square brackets hold non-standard residues; d marks the D form. Peptide text beside a SMILES is read from it.
Readout name: inhibition (%)
Provide the reading as a plain figure in %.

Use the examples below as a reference point.
CC(C)C[C@H](NC(=O)[C@@H](Cc1c[nH]c2ccccc12)NC(=O)[C@@H](Cc1c[nH]c2ccccc12)NC(=O)[C@@H](NC(=O)[C@@H](Cc1c[nH]c2ccccc12)NC(=O)[C@H](Cc1ccc(O)cc1)NC(=O)[C@@H](N)CC(=O)O)C(C)C)C(N)=O [H-Asp-Tyr-DTrp-Val-DTrp-DTrp-Leu-NH₂] (H-DY[dW]V[dW][dW]L-NH2)	100
CC(C)[C@H](NC(=O)[C@@H](Cc1c[nH]c2ccccc12)NC(=O)[C@H](Cc1ccc(O)cc1)NC(=O)[C@@H](N)CC(=O)O)C(=O)N[C@H](Cc1c[nH]c2ccccc12)C(=O)N[C@H](Cc1c[nH]c2ccccc12)C(=O)N[C@@H](CCC(=O)O)C(N)=O [H-Asp-Tyr-DTrp-Val-DTrp-DTrp-Glu-NH₂] (H-DY[dW]V[dW][dW]E-NH2)	100

Below: the item to evaluate.
Name the reported inhibition value associated with the compound CC(C)[C@H](NC(=O)[C@@H](Cc1c[nH]c2ccccc12)NC(=O)[C@H](Cc1ccc(O)cc1)NC(=O)[C@@H](N)CC(=O)O)C(=O)N[C@H](Cc1c[nH]c2ccccc12)C(=O)N[C@H](Cc1c[nH]c2ccccc12)C(=O)N[C@@H](CCCCN)C(N)=O [H-Asp-Tyr-DTrp-Val-DTrp-DTrp-Lys-NH₂] (H-DY[dW]V[dW][dW]K-NH2)
100

###

# Experimental target: NK-2 receptor (Oryctolagus cuniculus)
# Construct: This preparation is isolated rabbit pulmonary artery, in which tachykinins produce dose-related contraction; from tissue; host or cells: isolated rabbit pulmonary artery
# Sequence (P79218 1-384): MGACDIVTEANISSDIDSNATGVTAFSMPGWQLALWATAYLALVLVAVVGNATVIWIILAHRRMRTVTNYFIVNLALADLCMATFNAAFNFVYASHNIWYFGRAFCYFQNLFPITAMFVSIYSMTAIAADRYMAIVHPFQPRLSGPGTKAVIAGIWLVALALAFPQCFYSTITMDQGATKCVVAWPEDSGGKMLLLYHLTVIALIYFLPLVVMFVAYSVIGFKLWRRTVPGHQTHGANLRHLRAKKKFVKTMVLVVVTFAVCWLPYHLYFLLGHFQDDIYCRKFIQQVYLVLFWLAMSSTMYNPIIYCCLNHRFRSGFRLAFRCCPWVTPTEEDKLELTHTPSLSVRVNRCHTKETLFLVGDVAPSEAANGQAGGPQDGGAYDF
# Experiment: Antagonism of NKA-induced contraction in isolated rabbit pulmonary artery
# Type: cell-based
# Test conditions: inhibition of the response to NKA (3 nM), 10⁻⁶M concentration of each compound
Square brackets hold non-standard residues; d marks the D form. Peptide text beside a SMILES is read from it. Nle = CCCC[C@H](N)C(=O)O
Readout name: inhibition (%)
I only need the number, in %, no unit after it.

CC(C)[C@@H]1NC(=O)[C@@H](Cc2c[nH]c3ccccc23)NC(=O)[C@H](Cc2ccc(O)cc2)NC(=O)[C@H](CC(=O)O)NC(=O)[C@H](CCCNC(=N)N)NC(=O)[C@@H](Cc2c[nH]c3ccccc23)NC(=O)[C@@H](Cc2c[nH]c3ccccc23)NC1=O [Cyclo[AspTyrDTrpValDTrpDTrpArg], cyclo[AspTyrDTrpValDTrpDTrpArg]] (cyclo(DY[dW]V[dW][dW]R))	95

Let's switch to this compound now.
inhibition for CCCC[C@H](NC(=O)[C@@H](Cc1c[nH]c2ccccc12)NC(=O)[C@@H](Cc1c[nH]c2ccccc12)NC(=O)[C@@H](NC(=O)[C@@H](Cc1c[nH]c2ccccc12)NC(=O)[C@H](Cc1ccc(O)cc1)NC(=O)[C@@H](N)CC(=O)O)C(C)C)C(N)=O [H-Asp-Tyr-DTrp-Val-DTrp-DTrp-Nle-NH₂] (H-DY[dW]V[dW][dW][Nle]-NH2) ?
100

###

# Experimental target: NK-2 receptor (Oryctolagus cuniculus)
# Construct: This preparation is isolated rabbit pulmonary artery, in which tachykinins produce dose-related contraction; from tissue; host or cells: isolated rabbit pulmonary artery
# Experiment: Antagonism of NKA-induced contraction in isolated rabbit pulmonary artery
# Type: cell-based
# Test conditions: inhibition of the response to NKA (3 nM), 10⁻⁶M concentration of each compound
Square brackets hold non-standard residues; d marks the D form. Peptide text beside a SMILES is read from it.
We begin with a simple list: items and their reported inhibition.
Number only, in %; omit the unit.

CC(C)[C@@H]1NC(=O)[C@@H](Cc2c[nH]c3ccccc23)NC(=O)[C@H](Cc2ccc(O)cc2)NC(=O)[C@H](CC(=O)O)NC(=O)[C@H](CCCCN)NC(=O)[C@@H](Cc2c[nH]c3ccccc23)NC(=O)[C@@H](Cc2c[nH]c3ccccc23)NC1=O [Cyclo[AspTyrDTrpValDTrpDTrpLys], cyclo[AspTyrDTrpValDTrpDTrpLys]] (cyclo(DY[dW]V[dW][dW]K))	95

Field: next molecule
Can you share its inhibition? I mean this molecule: CC(C)[C@H](NC(=O)[C@@H](Cc1c[nH]c2ccccc12)NC(=O)[C@H](Cc1ccc(O)cc1)NC(=O)[C@@H](N)CC(=O)O)C(=O)N[C@H](Cc1c[nH]c2ccccc12)C(=O)N[C@H](Cc1c[nH]c2ccccc12)C(=O)N[C@@H](C)C(N)=O [H-Asp-Tyr-DTrp-Val-DTrp-DTrp-Ala-NH₂] (H-DY[dW]V[dW][dW]A-NH2)
100

###

# Experimental target: NK-2 receptor (Oryctolagus cuniculus, UniProt P79218)
# Construct: This preparation is isolated rabbit pulmonary artery, in which tachykinins produce dose-related contraction; from tissue; host or cells: isolated rabbit pulmonary artery
# Experiment: Antagonism of NKA-induced contraction in isolated rabbit pulmonary artery
# Assay type: cell-based
# Test conditions: inhibition of the response to NKA (3 nM), 10⁻⁶M concentration of each compound
Square brackets hold non-standard residues; d marks the D form. Peptide text beside a SMILES is read from it. Orn = NCCC[C@H](N)C(=O)O
Readout name: inhibition (%)
State the answer as a number, implicitly in %.

CC(C)[C@H](NC(=O)[C@@H](Cc1c[nH]c2ccccc12)NC(=O)[C@H](Cc1ccc(O)cc1)NC(=O)[C@@H](N)CC(=O)O)C(=O)N[C@H](Cc1c[nH]c2ccccc12)C(=O)N[C@H](Cc1c[nH]c2ccccc12)C(=O)N[C@@H](CCCN)C(N)=O [H-Asp-Tyr-DTrp-Val-DTrp-DTrp-Orn-NH₂] (H-DY[dW]V[dW][dW][Orn]-NH2)	100

// moving on: another record for inhibition
Fill in: inhibition of CC(C)[C@H](NC(=O)[C@@H](Cc1c[nH]c2ccccc12)NC(=O)[C@H](Cc1ccc(O)cc1)NC(=O)[C@@H](N)CC(=O)O)C(=O)N[C@H](Cc1c[nH]c2ccccc12)C(=O)N[C@H](Cc1c[nH]c2ccccc12)C(=O)NCC(N)=O [H-Asp-Tyr-DTrp-Val-DTrp-DTrp-Gly-NH₂] (H-DY[dW]V[dW][dW]G-NH2) is ___
100
